Assay: Pharmacokinetics and oral bioavailability of D8.3.p1 and D10.1 in Balb/C female mice (PO, SQ, IV)
Format: in vivo
Conditions: female, Balb/C, mouse, in vivo, sc; D8.3.p1 SQ 5 mg/kg, 30 min, individual mice M1, M2, M3; read-out: Plasma level
Where a SMILES comes first, the peptide text is derived from it. [ ]: non-standard residue; d: D form. dNMeL = CN[C@H](CC(C)C)C(=O)O
parameter: level at time molar at 0.5 h (nM)

{"columns": ["molecule", "reading"],
 "data": [
  ["CC[C@@H](C)[C@H]1NC(=O)[C@@H](CC(C)C)NC(=O)[C@@H](CC(C)C)N(C)C(=O)[C@@H]2CCCN2C(=O)[C@@H](C(C)C)NC(=O)[C@H](CC(C)C)NC(=O)[C@@H](CC(C)C)N(C)C(=O)[C@@H]2CCCN2C1=O [Design D8.3.p1, DLEU DVAL PRO *DLEU DLEU DILE PRO *DLEU] (cyclo(L[dV]P[dNMeL][dL][dI]P[dNMeL]))", 1080]
]}

Values from paper PMC9490236
